Molecular target: NRAS WT (Homo sapiens (Human), UniProt P01111+P62937)
Sequence (P01111 whole entry): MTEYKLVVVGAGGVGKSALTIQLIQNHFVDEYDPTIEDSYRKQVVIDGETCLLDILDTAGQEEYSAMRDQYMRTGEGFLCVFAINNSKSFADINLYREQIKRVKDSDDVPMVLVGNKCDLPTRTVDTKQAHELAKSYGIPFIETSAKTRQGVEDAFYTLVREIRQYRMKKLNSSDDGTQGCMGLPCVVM
Sequence (P62937 whole entry): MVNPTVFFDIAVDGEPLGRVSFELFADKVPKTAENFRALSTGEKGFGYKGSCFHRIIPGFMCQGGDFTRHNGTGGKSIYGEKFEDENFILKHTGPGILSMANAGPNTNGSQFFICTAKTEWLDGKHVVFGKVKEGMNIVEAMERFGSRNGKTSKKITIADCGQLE
Assay: Ras-Raf (BRAF RBD) disruption / FRET / MOA assay, NRAS WT
Assay type: biochemical
Conditions: read-out: IC50* NRAS WT FRET data
pIC50: −log10 of the molar value.
experimental-readout: pIC50

INSERT INTO assay_data (compound, experimental_readout, recorded_result) VALUES
  ('CC#CC(=O)N1CCC(C(=O)N(C)[C@H](C(=O)N[C@H]2Cc3nc(cs3)-c3ccc4c(c3)c(c(-c3cccnc3[C@H](C)OC)n4CC)CC(C)(C)COC(=O)[C@@H]3CCCN(N3)C2=O)C(C)C)C1 (atropisomer, axis not shown)', 'pIC50', '5.00 to 6.00'),
  ('C=CC(=O)N1CCO[C@H]2CN(C(=O)N(C)[C@H](C(=O)N[C@H]3Cc4coc(n4)-c4ccc5c(c4)c(c(-c4cccnc4[C@H](C)OC)n5CC(F)(F)F)CC(C)(C)COC(=O)[C@@H]4CCCN(N4)C3=O)C(C)C)C[C@H]21 (atropisomer, axis not shown)', 'pIC50', '5.00 to 6.00'),
  ('C=CC(=O)N1CC[C@H](C(=O)N(C)[C@H](C(=O)N[C@H]2Cc3cc(O)cc(c3)-c3ccc4c(c3)c(c(-c3cccc5c3COC5)n4CC)CC(C)(C)COC(=O)[C@@H]3CCCN(N3)C2=O)C(C)C)C1', 'pIC50', '5.00 to 6.00'),
  ('CCn1c(-c2cccnc2[C@H](C)OC)c2c3cc(ccc31)-c1cccc(c1)CC(NC(=O)[C@H](C(C)C)N1CC[C@]3(CCN(C(=O)C#C[C@@H]4COCCN4C4COC4)C3)C1=O)C(=O)N1CCC[C@H](N1)C(=O)OCC(C)(C)C2 (some centres unmarked)', 'pIC50', '< 5.00'),
  ('C=CC(=O)N1CC(OC[C@H](C(=O)N[C@H]2Cc3cc(cc(C(F)F)c3)-c3ccc4c(c3)c(c(-c3cccnc3[C@H](C)OC)n4CC)CC(C)(C)COC(=O)[C@@H]3CCCN(N3)C2=O)C(C)C)C1 (atropisomer, axis not shown)', 'pIC50', '< 5.00');

Source: patent US11566007B2
